- assay_remarks: protease stability score; higher = more stable; yeast display proteolysis, trypsin and chymotrypsin;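 note: log10 excess protease needed over predicted unfolded state with 0 meaning unfolded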
Think of -0.1 as a floor: if protease stability score stands on it or above, it is 1 (yes); beneath it, 0 (no).

Query string: Answer whether protease stability score of `DDDAVRQAQENLKAIEDGDEDKVRNLMDPNAQVNIGDKTIHGMEEFMRQMKRKLDEIRVDYEDIKIDKQGDKARLDATWRQDDNGEPHSMKVDVDVKFRNGKIVDWQQQYDG` is greater than or equal to -0.1.
Result string: 0 (no)

Query string: Answer whether protease stability score of `DDSQVRSALEQAKTGNFQNLRNQLDPNAHVRVGDKTLNGKEEAVSYMQEFRDQVDRIRVDSVTTQGEKAVADLTVVINGHRVRFELVVNIRNGRAREVELRSTSEEIKKHLEHLDS` is greater than or equal to -0.1.
Result string: 1 (yes)

Query string: Answer whether protease stability score of `DESDVKRAQDMVQNEQDGNEEEFDKLLDENVHFNVGDKRVNGRQQYLREVKKKRDQIRFSIKIDSVRARNGEATIDASARMVVNGQPKTYKFVIHVVQHNGDVRHVRISVPEEDVKRLKS` is greater than or equal to -0.1.
Result string: 1 (yes)

Query string: Answer whether protease stability score of `DHTIDEVFKQFETAKNDNDPDQLKKNADPNVDYTVGDQFVEGREHAADDIRRRREQQRNEIRSLRHSVQGNDIDVSVDMEVEHNGKPSDFTQRIDVVAHNGKIKHQTAHQEG` is greater than or equal to -0.1.
Result string: 0 (no)

Query string: Answer whether protease stability score of `DDEQDAREFVKKFVDVMRENNPRELVKMADPNVKVDVGDHRLNGREDLERKRKREADRADHIDVKVTKLHVNGDTVQAHFSFTIRHDGRNERKSETIIARKHNGRVKIKSIKNS` is greater than or equal to -0.1.
Result string: 0 (no)

Query string: Answer whether protease stability score of `DEEKQAKTALKRYKDAIKDGDEELAKRLFDKHARIEIGDKEVHGREEIARRIREMVERADHIDIKLQSMRVRGDHIRLELTMTVNINGKKEKSRFQFVMQRRGDEVYVTSMHQT` is greater than or equal to -0.1.
Result string: 1 (yes)

---

- assay_remarks: protease stability score; higher = more stable; yeast display proteolysis, trypsin and chymotrypsin;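 note: log10 excess protease needed over predicted unfolded state with 0 meaning unfolded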
result_type: protease stability score
Answers are plain numbers.

DDDKRHLAQRFFEAMKRGDPRQALNNMDPNARVVIGDKVIRGRDKFHEHIDKLNKHQRVQYRDVKLHDQGDKITANVDVVRNENGRPHRNVYVAEFSARNGRLTEVEMREDK; -0.138
DDSLLDKVKEIFSVMRTGDPDKMKKLADKHATFEVGDKQIHGREELSEIMRRRRDEQKVSVEVKRVKKQGDTANIVFTVTNNHNGTPKVETQTMTVNMSNGKITYVNVQNDK; -0.007
DEKEQEVLDRFMRALRTGNPDDADKNVDKDVNVRYGDRTIKGRESFHEEIRREHQEIRLDYRSVNNQVHNGQANVDVDAIWNVNGRPHRVKVHIRAQIHDGRIKHQRFRMDPEEKKRVDS; 0.054
DQRERVKKLFDRFQHNIKHGDKSKATNQFPPDVTMSIGDEDLHGRDAAKRYADNVANNADRFHHEIQDYKQKGNNANLRVKIVLNHNGTNHSHEADWVAVVHNGQARLKEVKFD; -0.078
DDDVLRKVERLIEVENEGNEDEARELMDPNAEFQVGDKSVHGREEYASNMKKEQKELKIEIHHVTQSVHNGEADVHLTMRVNDNGRPKEQHYHATFEAHNGRIVYVKKQMRG; -0.099

Continue with the next sequence.
Query string: Give the value of protease stability score reported for the following: `DEEDSKQMKQVLEAIRRGDEDHVRQQFDPNARIRVGDKEYHGMEEYASDLRSKRSKLDHKINLKTMSASNGRIDFVVQVQFTIDGQPVTDEVRATAVVHNGKIVSLSNEVDEERISEVEK`
Result string: -0.705
